- TEST NAME: qHTS for inhibitors of Vif-A3G interactions: Cherry picks; note: nearly all actives have a fitted effect of over 80% in size
- CONDITION NOTES: HeLa A3G-eYFP + Vif (tagged APOBEC3G with the HIV-1 protein that degrades it), 24 h; eYFP fluorescence increase; series mostly up to 36.9 µM
The whole screen tested about 2,100 compounds, of which about 650 (31%) were called active. Not shown: some 16% with an inconclusive outcome. Calls come from the whole dose curve; as a rule, active = well fitted inhibition curve with a large enough effect; inconclusive = small, poorly fitted or top-dose-only effect; inactive = flat fitted curve, though single readings scatter. This is one part of the list.
Outcome (select one): YES for active, NO for inactive

MOLECULE	GROUP
COc1cc(/C=C2/CCC/C(=C\c3cc(O)c(OC)c(Cl)c3)C2=O)cc(Cl)c1O	YES

Enquiry: Outcome? Cc1nc2c3cc(F)ccc3n(Cc3ccccc3)c2s1
Return: NO

Enquiry: Which outcome was assigned to Cc1cccc2cc3c(N)c(C(=O)N4CCc5ccccc54)sc3nc12 in this test?
Return: YES

Enquiry: Write down the call the test reported for this molecule. Item: Cc1cc(C(=O)N/N=C/c2ccc3c(c2)OCO3)c2ccccc2n1
Return: NO

Enquiry: State the result this test recorded for CC(C)=CCn1c2ccc(NC(=O)NCc3ccc(F)cc3)cc2c(=O)n1C .
Return: NO
